# testedTarget: T1, Fc fused human IL-18BP isoform a (IL-18BPa) (human, UniProt O95998 31-194)
# T1 construct: also called IL-18BP monomer; not shown: Fc part
# T1 sequence (looked up): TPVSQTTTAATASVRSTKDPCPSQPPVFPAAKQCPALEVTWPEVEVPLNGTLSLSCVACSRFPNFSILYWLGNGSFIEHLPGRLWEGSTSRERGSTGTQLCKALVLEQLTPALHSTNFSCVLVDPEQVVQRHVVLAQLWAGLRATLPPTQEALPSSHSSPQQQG
# protocolText: SPR, Fc-IL-18BPa captured, 1:1 model
parameter: koff

Looking for the measured koff of Modified IL-18 polypeptide of SEQ ID NO: 22 (E06K, K53A, C38S, C68S, C76S, C127S, K70C) (ligand) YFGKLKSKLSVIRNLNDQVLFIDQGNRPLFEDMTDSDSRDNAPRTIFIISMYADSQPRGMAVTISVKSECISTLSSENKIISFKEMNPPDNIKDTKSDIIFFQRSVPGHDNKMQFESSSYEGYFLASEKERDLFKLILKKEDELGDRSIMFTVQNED , can you help? 0.00235 s⁻¹

Looking for the measured koff of Modified IL-18 polypeptide of SEQ ID NO: 18 (E06K, K53A, T63A) (ligand) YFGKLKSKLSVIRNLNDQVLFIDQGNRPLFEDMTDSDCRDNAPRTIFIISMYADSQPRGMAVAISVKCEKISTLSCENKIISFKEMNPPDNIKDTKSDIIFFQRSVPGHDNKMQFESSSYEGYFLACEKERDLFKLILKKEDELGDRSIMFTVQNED , can you help? 0.00291 s⁻¹

Looking for the measured koff of Modified IL-18 polypeptide of SEQ ID NO: 10 (E06K, K53A, S55A, T63A) (ligand) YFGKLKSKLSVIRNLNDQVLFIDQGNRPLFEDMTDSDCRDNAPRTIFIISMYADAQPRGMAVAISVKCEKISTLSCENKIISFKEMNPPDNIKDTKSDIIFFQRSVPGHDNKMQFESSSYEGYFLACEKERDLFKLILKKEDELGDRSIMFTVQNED , can you help? 0.0181 s⁻¹
